Molecular target: IGF-1R on MCF-7 cells (MCF-7S8, MCF7) (human, UniProt P08069 31-1367)
Sequence (P08069 31-1367): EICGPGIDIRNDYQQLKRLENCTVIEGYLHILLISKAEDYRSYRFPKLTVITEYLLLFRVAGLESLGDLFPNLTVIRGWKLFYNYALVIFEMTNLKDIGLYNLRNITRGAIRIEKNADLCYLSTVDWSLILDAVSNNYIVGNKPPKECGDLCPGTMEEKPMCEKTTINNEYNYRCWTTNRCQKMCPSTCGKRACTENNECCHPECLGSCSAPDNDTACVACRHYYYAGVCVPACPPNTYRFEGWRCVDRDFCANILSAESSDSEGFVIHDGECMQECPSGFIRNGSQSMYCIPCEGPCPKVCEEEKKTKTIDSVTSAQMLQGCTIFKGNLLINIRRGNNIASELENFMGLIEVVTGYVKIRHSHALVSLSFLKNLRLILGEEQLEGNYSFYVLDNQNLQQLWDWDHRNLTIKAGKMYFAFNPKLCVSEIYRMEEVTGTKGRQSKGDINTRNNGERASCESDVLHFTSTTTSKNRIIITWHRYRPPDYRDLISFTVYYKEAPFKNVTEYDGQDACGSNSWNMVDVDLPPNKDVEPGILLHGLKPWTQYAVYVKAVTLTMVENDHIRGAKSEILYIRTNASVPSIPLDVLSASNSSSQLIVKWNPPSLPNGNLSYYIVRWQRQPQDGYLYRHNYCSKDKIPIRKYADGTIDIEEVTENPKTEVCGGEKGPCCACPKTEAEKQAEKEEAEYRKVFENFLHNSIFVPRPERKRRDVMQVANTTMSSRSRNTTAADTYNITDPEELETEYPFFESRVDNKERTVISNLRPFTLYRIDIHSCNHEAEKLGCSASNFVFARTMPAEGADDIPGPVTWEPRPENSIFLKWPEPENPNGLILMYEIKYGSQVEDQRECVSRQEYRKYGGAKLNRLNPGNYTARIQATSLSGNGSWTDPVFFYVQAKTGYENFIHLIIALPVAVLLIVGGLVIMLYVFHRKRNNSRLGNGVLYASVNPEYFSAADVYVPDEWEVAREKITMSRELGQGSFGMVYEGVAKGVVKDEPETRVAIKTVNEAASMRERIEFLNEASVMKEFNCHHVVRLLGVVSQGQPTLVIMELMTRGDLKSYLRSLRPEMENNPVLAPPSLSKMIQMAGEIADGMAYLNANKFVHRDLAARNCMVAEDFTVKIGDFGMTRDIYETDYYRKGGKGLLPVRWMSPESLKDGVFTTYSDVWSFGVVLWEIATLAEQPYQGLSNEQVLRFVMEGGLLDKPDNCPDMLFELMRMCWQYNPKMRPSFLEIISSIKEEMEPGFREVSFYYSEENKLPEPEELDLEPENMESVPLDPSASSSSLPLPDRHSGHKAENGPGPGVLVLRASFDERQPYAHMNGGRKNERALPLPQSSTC
Assay: cell-based or functional assay
This section presents binders with their documented IC50 in MCF-7S8, in presence of IGF-1 values.

binder	IC50 in MCF-7S8, in presence of IGF-1, µM
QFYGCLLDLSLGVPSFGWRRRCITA [F138]	0.5
EFGRGYGGDGGGYWSGYEWLAE [F207]	2
EISFRCQLFVLAGMHPCPVDVGGEGFE [F170]	2
EGRVDDAFYEWFERQLGE [F213]	2
EFSGFCMGLERLSQVSLGYCGAGQGGE [F169]	2
SFYSCLESLVTGPAEKSRGQWEGCRK [F292]	1
SFYSCLESLVNGPAEKSRGQWDGCRK [F250]	2
SFYSCLESLVQGPAEKSRGQWEGCRK [F293]	10
